molecular target: M1 muscarinic receptor (Homo sapiens); construct: expressed in transfected cells; host or cells: CHO (M1-CHO); test: Functional mobilization of intracellular calcium (FLIPR) in M1-CHO cells; format: cell-based; settings: Table 4; 100% efficacy is the maximum response obtained with the Carbachol control
Property: Emax

The cases that follow already have their Emax on record.
CC(=O)N[C@H]1CCC2(CCN([C@H]3CC4CC[C@H](C4)C3)CC2)c2ccccc21 = 25 to 100%
CCOC(=O)N1CCC(N2CCC3(CC2)CN(c2cncnc2)c2ccc(F)cc23)CC1 = 25 to 100%
CC(CF)OC(=O)N1CC[C@@H](CN2CCC3(CC2)CN(C(=O)N(C)C)c2ccc(F)cc23)C1 (stereo partly shown) = 25 to 100%

// fetch M1 muscarinic receptor (Homo sapiens) Emax for CC#CCOC(=O)N1CC[C@@H](CN2CCC3(CC2)CN(C(C)=O)c2ccccc23)C1
25 to 100%

// fetch M1 muscarinic receptor (Homo sapiens) Emax for CC#CCOC(=O)N1CCC(N2CCC3(CC2)CN(C(C)=O)c2ccccc23)CC1
25 to 100%

// fetch M1 muscarinic receptor (Homo sapiens) Emax for CCCOC(=O)N1CC[C@H](CN2CCC3(CC2)CN(C(C)=O)c2ccccc23)C1
< 25%

// fetch M1 muscarinic receptor (Homo sapiens) Emax for CC(=O)N[C@H]1CC2(CCN(CC(=O)N3CCCC3)CC2)c2ccccc21
< 25%

// fetch M1 muscarinic receptor (Homo sapiens) Emax for CCOC(=O)N1CCC(N2CCC3(CC2)CN(C(C)=O)c2c(F)cc(F)cc23)CC1
25 to 100%

// fetch M1 muscarinic receptor (Homo sapiens) Emax for CCOC(=O)N1CCC(N2CCC3(CC2)CN(C(C)=O)c2c(-c4cccnc4)cccc23)CC1
25 to 100%

// fetch M1 muscarinic receptor (Homo sapiens) Emax for O=C1CC2(CCN([C@@H]3C[C@H]4CC[C@@H]3C4)CC2)c2ccc(Cl)cc21
25 to 100%

// fetch M1 muscarinic receptor (Homo sapiens) Emax for CCOC(=O)C1CC1CN1CCC2(CC1)C[C@H](NC(C)=O)c1ccccc12 (stereo partly shown)
25 to 100%

// fetch M1 muscarinic receptor (Homo sapiens) Emax for CCOC(=O)N1CCC(N2CCC3(CC2)CN(C(C)=O)c2c(-c4ccncc4)cccc23)CC1
25 to 100%

// fetch M1 muscarinic receptor (Homo sapiens) Emax for CCCC(=O)N[C@H]1CC2(CCN(CC3CCCCC3)CC2)c2ccccc21
25 to 100%

// fetch M1 muscarinic receptor (Homo sapiens) Emax for CCC(C)(C)C1CCC(N2CCC3(CC[C@H](NC(C)=O)c4ccccc43)CC2)CC1 (stereo partly shown)
25 to 100%

// fetch M1 muscarinic receptor (Homo sapiens) Emax for CCOC(=O)N1CCC(N2CCC3(CC2)CN(C(=O)NCc2ccccc2)c2ccccc23)CC1
25 to 100%

// fetch M1 muscarinic receptor (Homo sapiens) Emax for CC(=O)N1CC2(CCN(C[C@H]3CCN(c4cnccn4)C3)CC2)c2c(C)cccc21
25 to 100%

###

Molecular target: M1 muscarinic receptor (Homo sapiens, UniProt P11229)
Construct: expressed in transfected cells; host or cells: CHO (M1-CHO)
Sequence (P11229 1-460): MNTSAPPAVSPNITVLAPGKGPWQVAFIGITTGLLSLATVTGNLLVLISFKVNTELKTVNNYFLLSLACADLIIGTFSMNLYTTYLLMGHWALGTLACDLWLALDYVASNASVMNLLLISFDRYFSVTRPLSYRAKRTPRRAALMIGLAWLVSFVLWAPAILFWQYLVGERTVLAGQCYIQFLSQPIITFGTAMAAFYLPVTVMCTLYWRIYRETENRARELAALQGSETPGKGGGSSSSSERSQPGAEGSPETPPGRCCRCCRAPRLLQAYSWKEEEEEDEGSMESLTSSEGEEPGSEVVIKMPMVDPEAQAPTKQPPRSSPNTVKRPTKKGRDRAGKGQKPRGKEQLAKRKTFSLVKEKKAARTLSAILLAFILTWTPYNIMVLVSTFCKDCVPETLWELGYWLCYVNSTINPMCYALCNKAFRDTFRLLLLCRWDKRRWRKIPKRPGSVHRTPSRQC
Assay: Functional mobilization of intracellular calcium (FLIPR) in M1-CHO cells
Assay type: cell-based
Details: Table 4; 100% efficacy is the maximum response obtained with the Carbachol control
Emax reference

C/C=C/C(=O)N1CC2(CCN(C3CCN(C(=O)OCC)CC3)CC2)c2cc(F)ccc21 = 25 to 100%
CN(C)C(=O)CN1CC2(CCN(C[C@H]3C[C@H]4C=CC3C4)CC2)c2cc(F)ccc21 = 25 to 100%
O=C(N[C@H]1CC2(CCN(CCC3CC4CC[C@@H]3C4)CC2)c2ccccc21)N1CCCC1 (stereo partly shown) = < 25%

Turning now to a further molecule:
Field request: Emax | item: CCOC(=O)N1C2CCC1CC(N1CCC3(CC1)CN(C(C)=O)c1ccc(S(C)(=O)=O)cc13)C2 (stereo not shown)
25 to 100%

###

Emax reference
molecular target: M4 muscarinic receptor (Homo sapiens, UniProt P08173); construct: expressed in transfected cells; host or cells: CHO (M4-CHO); assay: Functional mobilization of intracellular calcium (FLIPR) in M4-CHO cells; format: cell-based; settings: Table 4; 100% efficacy is the maximum response obtained with the Carbachol control
Sequence (P08173 whole entry): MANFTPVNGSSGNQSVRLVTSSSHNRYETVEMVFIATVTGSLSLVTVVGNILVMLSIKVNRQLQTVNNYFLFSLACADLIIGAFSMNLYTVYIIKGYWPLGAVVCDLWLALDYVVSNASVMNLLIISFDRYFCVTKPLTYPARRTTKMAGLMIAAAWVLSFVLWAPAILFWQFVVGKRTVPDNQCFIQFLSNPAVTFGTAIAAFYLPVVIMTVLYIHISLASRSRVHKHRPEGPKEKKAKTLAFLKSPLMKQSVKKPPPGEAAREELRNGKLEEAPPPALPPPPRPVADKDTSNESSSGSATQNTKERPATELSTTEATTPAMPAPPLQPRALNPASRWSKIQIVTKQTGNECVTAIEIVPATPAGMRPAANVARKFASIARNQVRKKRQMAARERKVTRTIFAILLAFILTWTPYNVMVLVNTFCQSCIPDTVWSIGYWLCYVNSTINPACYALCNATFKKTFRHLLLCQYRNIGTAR

CCOC(=O)N1C2CCC1CC(N1CCC3(CC[C@H](NC(=O)N(C)C)c4ccccc43)CC1)C2 (some centres unmarked) = 25 to 100%
c1ccc2c(c1)CCCC21CCN(CC2CCCCC2)CC1 = 25 to 100%
CC#CC(C)OC(=O)N1CC[C@@H](CN2CCC3(CC2)CN(C(=O)N(C)C)c2ccc(F)cc23)C1 (some centres unmarked) = < 25%
COc1ccccc1C(=O)N1CCC(N2CCC3(CC2)CN(C(=O)N(C)C)c2ccc(F)cc23)CC1 = < 25%
O=C(N[C@H]1CC2(CCN(C3CCCCC3)CC2)c2ccccc21)C1CC1 = < 25%

Field request: Emax | item: CC(C)C1CCC(N2CCC3(CC2)CC(C(=O)O)c2ccccc23)CC1 (centres unmarked)
< 25%

Field request: Emax | item: CC(=O)N1CC2(CCN(CC3CCN(C(=O)OC4CCC4)CC3)CC2)c2cc(F)ccc21
< 25%

Field request: Emax | item: CCOC(=O)N1CCC(N2CCC3(CC2)CN(C(=O)[C@@H](O)CC)c2ccc(F)cc23)CC1
25 to 100%

###

Emax reference
biological target: M1 muscarinic receptor (Homo sapiens, UniProt P11229); construct: expressed in transfected cells; host or cells: CHO (M1-CHO); assay: Functional mobilization of intracellular calcium (FLIPR) in M1-CHO cells; type: cell-based; conditions: M1 receptor, calcium mobilization; read-out: M1 Efficacy

The cases that follow already have their Emax on record.
COCCOC(=O)N1CC2(CCN(C3CC4CCC(C3)N4C(=O)OC3CCC3)CC2)c2cc(F)ccc21 (centres unmarked) [compound 195] = < 65%
CCOC(=O)N1CCC(N2CCC3(CC2)CN(C(=O)c2cccnc2)c2ccc(F)cc23)CC1 [compound 144] = > 85%
O=C(OC1CCC1)N1C2CCC1CC(N1CCC3(CC1)C(=O)Nc1ccccc13)C2 (centres unmarked) [compound 217] = < 65%
Fc1ccc2c(c1)C1(CCN(C3CCC4CCC3C4)CC1)CN2 (centres unmarked) [compound 111] = 65 to 85%
CCOC(=O)N1CCC(N2CCC3(CC2)C[C@H](NC(C)=O)c2ccccc23)CC1 [compound 61] = 65 to 85%

Field request: Emax | item: Cc1ccc2c(c1)C1(CCN(C3CC4CCC3C4)CC1)CN2S(C)(=O)=O (centres unmarked) [compound 232]
< 65%

Field request: Emax | item: CC(=O)N1CC2(CCN(C3CC4CCC(C3)N4C(=O)OC3CCC3)CC2)c2cc(F)ccc21 (centres unmarked) [compound 174]
> 85%

Field request: Emax | item: COC(=O)N1CC2(CCN(C3CC4CCC(C3)N4C(=O)O[C@H]3CCOC3)CC2)c2cc(F)ccc21 (some centres unmarked) [compound 96]
65 to 85%

Field request: Emax | item: CCCC1CCC(N2CCC3(CC2)CN(C(C)=O)c2ccc(F)cc23)CC1 (centres unmarked) [compound 131]
65 to 85%

Field request: Emax | item: Clc1ccc2c(c1)C1(CCO2)CCN(C2CCCCC2)CC1 [compound 276]
65 to 85%

###

target: M1 muscarinic receptor (Homo sapiens, UniProt P11229); construct: expressed in transfected cells; host or cells: CHO (M1-CHO); assay: Functional mobilization of intracellular calcium (FLIPR) in M1-CHO cells; format: cell-based; conditions: Table 4; 100% efficacy is the maximum response obtained with the Carbachol control
Emax reference

The cases that follow already have their Emax on record.
CC(=O)N[C@H]1CCC2(CCN(C[C@@H]3C[C@H]4C=C[C@H]3C4)CC2)c2ccccc21 = 25 to 100%
CCOC(=O)N1CCC(N2CCC3(CC2)CN(c2ccsc2)c2ccc(F)cc23)CC1 = 25 to 100%
COc1ccc(N2CCC(N3CCC4(CC3)CN(C(=O)N(C)C)c3ccc(F)cc34)CC2)cc1 = 25 to 100%
CCCN1CCC(N2CCC3(CC2)CN(C(C)=O)c2ccc(F)cc23)CC1 = < 25%
CC(=O)N[C@@H]1CCC2(CCN(C3CCCCCC3)CC2)c2ccccc21 = < 25%

Field request: Emax | item: CCCC#CCOC(=O)N1CCC(N2CCC3(CC2)CN(C(C)=O)c2ccccc23)CC1
25 to 100%

Field request: Emax | item: O=C1CC2(CCN(CC3CC4C=CC3C4)CC2)c2ccc(Cl)cc21 (centres unmarked)
25 to 100%

Field request: Emax | item: CCOC(=O)N1C2CCC1CC(N1CCC3(CC1)CN(C(C)=O)c1ccc(OC(F)(F)F)cc13)C2 (centres unmarked)
25 to 100%

Where do these numbers come from? They come from patent US7786141B2.
